target: rhesus monkey D1 receptor (Macaca mulatta, UniProt O77680); assay: cAMP assay: potentiation of EC20 dopamine in transiently transfected HEK293 cells; settings: rhesus D1, HEK293 transient, n = 4
Sequence (O77680 whole entry): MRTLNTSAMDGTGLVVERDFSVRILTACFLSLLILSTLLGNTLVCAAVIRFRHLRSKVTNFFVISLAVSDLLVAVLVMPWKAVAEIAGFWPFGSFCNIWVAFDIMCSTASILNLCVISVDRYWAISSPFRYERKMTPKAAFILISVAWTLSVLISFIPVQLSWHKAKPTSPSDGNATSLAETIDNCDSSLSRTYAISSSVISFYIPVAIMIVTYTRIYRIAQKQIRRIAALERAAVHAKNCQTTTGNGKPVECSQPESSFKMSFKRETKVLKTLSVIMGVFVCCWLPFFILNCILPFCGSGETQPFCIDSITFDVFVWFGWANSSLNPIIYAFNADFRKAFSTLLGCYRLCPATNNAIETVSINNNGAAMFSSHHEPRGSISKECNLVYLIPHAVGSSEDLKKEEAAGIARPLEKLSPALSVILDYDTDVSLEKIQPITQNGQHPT
QUANTITY_KIND: EC50 (nM)
Answers are plain numbers, in nM.

compound C[C@H]1c2cccc(CC(C)(C)O)c2C[C@H](CO)N1C(=O)Cc1c(Cl)cccc1Cl , EC50 observed: 38

----------
target: human D1 receptor (Homo sapiens, UniProt P21728); assay: cAMP assay: potentiation of EC20 dopamine in transiently transfected HEK293 cells; conditions: human D1, HEK293 transient, n = 4
Sequence (P21728 whole entry): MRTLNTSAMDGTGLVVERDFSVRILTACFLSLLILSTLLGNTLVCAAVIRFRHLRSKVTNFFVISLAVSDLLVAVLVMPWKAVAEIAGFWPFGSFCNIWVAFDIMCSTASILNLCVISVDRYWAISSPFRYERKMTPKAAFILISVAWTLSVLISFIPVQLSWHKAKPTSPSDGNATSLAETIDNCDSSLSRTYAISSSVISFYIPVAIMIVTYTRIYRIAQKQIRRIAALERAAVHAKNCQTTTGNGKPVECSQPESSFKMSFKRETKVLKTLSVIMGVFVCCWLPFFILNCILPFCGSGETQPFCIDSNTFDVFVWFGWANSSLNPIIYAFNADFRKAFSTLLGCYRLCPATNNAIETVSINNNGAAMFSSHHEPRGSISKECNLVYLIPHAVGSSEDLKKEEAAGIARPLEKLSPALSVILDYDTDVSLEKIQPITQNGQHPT
QUANTITY_KIND: pEC50
Give bare numbers, as −log10 of the molar value.

Tested on human D1 receptor (Homo sapiens, UniProt P21728): C[C@H]1c2cccc(CC(C)(C)O)c2C[C@H](CO)N1C(=O)Cc1c(Cl)cccc1Cl [DPTQ] . Observed pEC50: 7.64

----------
target: D2 receptor (Homo sapiens, UniProt P14416); test: Broad screening binding study with 3[H]-raclopride; settings: 3[H]-raclopride as ligand; unpublished findings
Sequence (P14416 whole entry): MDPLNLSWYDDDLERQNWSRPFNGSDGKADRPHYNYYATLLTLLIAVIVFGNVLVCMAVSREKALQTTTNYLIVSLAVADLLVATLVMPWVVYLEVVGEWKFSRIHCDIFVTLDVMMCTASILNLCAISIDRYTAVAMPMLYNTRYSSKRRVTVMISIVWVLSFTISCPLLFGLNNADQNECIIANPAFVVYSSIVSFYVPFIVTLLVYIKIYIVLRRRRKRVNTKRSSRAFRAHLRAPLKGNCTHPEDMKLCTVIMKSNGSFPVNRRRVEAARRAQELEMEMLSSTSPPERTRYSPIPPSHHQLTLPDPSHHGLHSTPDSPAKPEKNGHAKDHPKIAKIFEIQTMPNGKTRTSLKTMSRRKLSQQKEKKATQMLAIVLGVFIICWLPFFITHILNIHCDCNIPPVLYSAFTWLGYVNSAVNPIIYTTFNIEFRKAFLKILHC
pKi: −log10 of the molar value.
QUANTITY_KIND: pKi

Tested on D2 receptor (Homo sapiens, UniProt P14416): C[C@H]1c2cccc(CC(C)(C)O)c2C[C@H](CO)N1C(=O)Cc1c(Cl)cccc1Cl [DPTQ] . Observed pKi: < 5.25

----------
test system: dog D1 receptor; assay: cAMP assay: potentiation of EC20 dopamine in transiently transfected HEK293 cells; type: cell-based; settings: dog D1, HEK293 transient, n = 4
QUANTITY_KIND: EC50 (nM)
Answers are plain numbers, in nM.

compound C[C@H]1c2cccc(CC(C)(C)O)c2C[C@H](CO)N1C(=O)Cc1c(Cl)cccc1Cl , EC50 observed: 21.5
